Attribution: patent US10501449B2

Each entry below carries its recorded inhibition at 1 µM.
target-or-test-system: hERG channels (Homo sapiens (Human), UniProt Q12809)
Sequence (Q12809 whole entry): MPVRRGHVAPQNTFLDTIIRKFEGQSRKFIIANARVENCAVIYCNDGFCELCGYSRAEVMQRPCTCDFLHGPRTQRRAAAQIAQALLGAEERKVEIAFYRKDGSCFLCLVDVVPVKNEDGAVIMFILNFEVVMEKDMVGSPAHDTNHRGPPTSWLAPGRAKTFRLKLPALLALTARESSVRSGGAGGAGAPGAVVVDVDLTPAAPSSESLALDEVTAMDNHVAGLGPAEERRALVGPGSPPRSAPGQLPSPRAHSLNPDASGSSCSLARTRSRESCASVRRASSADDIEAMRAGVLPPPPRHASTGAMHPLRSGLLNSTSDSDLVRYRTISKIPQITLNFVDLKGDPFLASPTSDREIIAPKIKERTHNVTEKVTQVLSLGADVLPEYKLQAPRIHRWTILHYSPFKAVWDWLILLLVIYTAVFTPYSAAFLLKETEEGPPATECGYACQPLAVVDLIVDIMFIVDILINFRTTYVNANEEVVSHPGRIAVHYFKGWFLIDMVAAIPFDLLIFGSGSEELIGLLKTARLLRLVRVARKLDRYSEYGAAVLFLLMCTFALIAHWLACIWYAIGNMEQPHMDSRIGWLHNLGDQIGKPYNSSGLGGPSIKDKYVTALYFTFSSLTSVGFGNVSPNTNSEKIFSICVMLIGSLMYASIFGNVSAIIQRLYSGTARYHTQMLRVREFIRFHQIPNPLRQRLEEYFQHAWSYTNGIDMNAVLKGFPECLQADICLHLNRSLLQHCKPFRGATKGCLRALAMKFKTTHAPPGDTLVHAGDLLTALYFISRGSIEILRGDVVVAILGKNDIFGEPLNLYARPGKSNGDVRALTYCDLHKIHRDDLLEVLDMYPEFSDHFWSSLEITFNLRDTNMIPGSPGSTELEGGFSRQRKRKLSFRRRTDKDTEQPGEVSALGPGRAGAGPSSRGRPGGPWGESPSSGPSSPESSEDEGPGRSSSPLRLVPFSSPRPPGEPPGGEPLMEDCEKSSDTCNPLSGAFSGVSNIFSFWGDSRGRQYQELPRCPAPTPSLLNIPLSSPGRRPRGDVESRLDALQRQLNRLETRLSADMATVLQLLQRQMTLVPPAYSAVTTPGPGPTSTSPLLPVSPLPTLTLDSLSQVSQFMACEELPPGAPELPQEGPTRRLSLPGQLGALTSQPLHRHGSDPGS
assay-procedure: hERG Manual Patch Clamp Assay
Type: cell-based
experimental-parameters: human, HEK 293 cells stably expressing hERG channels, pH 7.4, 1 uM, read-out: hERG EP % Inh @ 1 uM
The answer is to be given in %; state only the numeric part.

Cc1c([C@@H]2CN(Cc3ccc(-n4ccc(C#N)n4)nc3)CCN2)ccc2c1COC2=O
29

What value of inhibition at 1 µM has been recorded for this entry: Cc1nn(-c2ncc(CN3C[C@@H](c4ccc5c(c4C)COC5=O)N[C@@H](C)C3)cn2)cc1C#N 8.7

Then COc1cc(-n2cnc(CN3CCN[C@H](c4ccc5c(c4C)COC5=O)C3)c2)ncc1C#N ? 1.7

Then COc1nc(-n2ncc(CN3C[C@@H](c4ccc5c(c4C)COC5=O)N[C@@H](C)C3)n2)ncc1C#N ? 6

Then COc1cc(-n2cnc(CN3CCO[C@H](c4ccc5c(c4C)COC5=O)C3)c2)ncc1C#N ? 11

Then Cc1cc(-n2cc(CN3CCO[C@H](c4ccc5c(c4C)COC5=O)C3)c(C)n2)ncc1C#N ? 72

Then Cc1c([C@@H]2CN(Cc3cnc(-n4cnc(C#N)n4)nc3)CCN2)ccc2c1COC2=O ? 16

Then Cc1c([C@@H]2CN(Cc3cnn(-c4cc(C#N)ccn4)c3)CCN2)ccc2c1COC2=O ? 0

Then COc1cc(-n2cc(CN3CC[C@@H](O)[C@H](c4ccc5c(c4C)COC5=O)C3)n(C)c2=O)ncc1C#N ? 16
